Target: KRAS G13D (Homo sapiens, UniProt P01116+P62937, G13D)
Sequence (P01116 1-169 isoform P01116-2 G13D limits assumed): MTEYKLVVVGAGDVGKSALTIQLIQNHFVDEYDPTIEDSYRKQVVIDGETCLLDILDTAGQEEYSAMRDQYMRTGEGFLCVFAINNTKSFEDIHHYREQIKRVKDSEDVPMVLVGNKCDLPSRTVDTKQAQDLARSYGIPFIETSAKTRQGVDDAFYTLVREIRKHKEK
Sequence (P62937 whole entry): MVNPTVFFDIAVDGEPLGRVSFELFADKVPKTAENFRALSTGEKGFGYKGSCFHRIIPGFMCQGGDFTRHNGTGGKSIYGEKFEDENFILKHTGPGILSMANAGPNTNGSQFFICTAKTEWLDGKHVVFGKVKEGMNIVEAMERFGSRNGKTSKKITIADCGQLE
Experiment: Disruption of BRAF RBD interaction with Ras (FRET / MOA assay, with Cyclophilin A)
Format: biochemical
Settings: KRAS G13D; read-out: KRAS G13D FRET data IC50
pIC50: −log10 of the molar value.
Listed next: entries and their corresponding pIC50.

Solved cases below.
[
  {
    "compound": "CCn1c(-c2cccnc2[C@H](C)OC)c2c3cc(ccc31)-c1csc(n1)C[C@H](NC(=O)[C@H](C(C)C)N(C)C(=O)N1CC3CC(C1)N3C)C(=O)N1CCC[C@H](N1)C(=O)OCC(C)(C)C2",
    "pIC50": "6.00 to 7.00"
  },
  {
    "compound": "CCn1c(-c2cccnc2[C@H](C)OC)c2c3cc(ccc31)-c1cc(O)cc(c1)C[C@H](NC(=O)[C@H](C(C)C)N(C)C(=O)[C@@H]1OCC[C@@H]1c1cccnc1)C(=O)N1CCC[C@H](N1)C(=O)OCC(C)(C)C2 (atropisomer, axis not shown)",
    "pIC50": "7.00 to 8.00"
  },
  {
    "compound": "C=CC(=O)N1CC(OC[C@H](C(=O)N[C@H]2Cc3cccc(c3)-c3ccc4c(c3)c(c(-c3cccnc3[C@H](C)OC)n4CC(F)(F)F)CC(C)(C)COC(=O)[C@@H]3CCCN(N3)C2=O)C(C)C)C1",
    "pIC50": "< 5.00"
  }
]

Proceeding to the next compound to report its pIC50.
Input line: For the compound shown here, CCn1c(-c2cnccc2COC)c2c3cc(ccc31)-c1cc(O)cc(c1)C[C@H](NC(=O)[C@H](C(C)C)N(C)C(=O)C1C[C@@H]1C)C(=O)N1CCC[C@H](N1)C(=O)OCC(C)(C)C2 (stereo partly shown) , give the reported pIC50.
Output line: 6.00 to 7.00
